These measurements were taken from patent US11623919B2.

- measured-on: P2X7 receptor (Rattus norvegicus)
- Construct: rP2X7 (IC50; nM); other: rP2X7; HEK-293 cells stably transfected with P2X7 receptor, Bz-ATP at EC80, Fluo-8 NW; potency
- Sequence (Q64663 whole entry): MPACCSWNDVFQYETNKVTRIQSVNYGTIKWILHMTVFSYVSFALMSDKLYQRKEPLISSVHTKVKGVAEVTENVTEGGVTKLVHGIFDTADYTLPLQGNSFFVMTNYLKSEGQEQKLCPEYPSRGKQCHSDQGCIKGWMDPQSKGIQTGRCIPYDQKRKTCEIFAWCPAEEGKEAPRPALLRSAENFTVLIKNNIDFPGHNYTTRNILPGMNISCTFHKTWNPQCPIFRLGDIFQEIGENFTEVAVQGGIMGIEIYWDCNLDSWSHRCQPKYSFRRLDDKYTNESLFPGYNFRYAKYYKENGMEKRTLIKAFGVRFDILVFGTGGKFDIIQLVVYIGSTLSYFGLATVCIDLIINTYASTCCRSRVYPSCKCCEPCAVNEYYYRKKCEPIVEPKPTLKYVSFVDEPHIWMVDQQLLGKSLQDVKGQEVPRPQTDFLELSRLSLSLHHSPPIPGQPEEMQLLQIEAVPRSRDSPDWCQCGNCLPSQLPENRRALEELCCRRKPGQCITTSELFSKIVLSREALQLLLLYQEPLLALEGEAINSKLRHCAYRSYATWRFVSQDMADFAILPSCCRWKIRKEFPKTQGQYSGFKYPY
- protocol-summary: Screen Quest Fluo-8 No Wash Calcium Assay (Bz-ATP evoked Ca2+ influx, FLIPR)
- Format: cell-based
- conditions-used: rP2X7; HEK-293 cells stably transfected with P2X7 receptor, Bz-ATP at EC80, Fluo-8 NW; potency ranges A-D
readout: IC50

Consider the following illustrative entries.
O=c1onc(Cc2c(F)cccc2Cl)n1CC1CCC(F)(F)C1 (racemic) [Example 128] : < 200 nM
Cn1c(Cc2c(F)cccc2Cl)noc1=O : > 10000 nM
O=c1onc(Cc2ccc(F)cc2)n1Cc1ccc(Cl)cc1Cl : 1000 to 10000 nM
Cc1ncccc1Cc1noc(=O)n1Cc1c(F)cccc1Cl : > 10000 nM
O=c1onc(Cc2cccc(C(F)(F)F)c2Cl)n1Cc1c(F)cccc1Cl : 1000 to 10000 nM

query: Recall the recorded IC50 for COc1cccc(Cc2noc(=O)n2CC2CCC(F)(F)CC2)c1 with P2X7 receptor (Rattus norvegicus) and state it.
result: 200 to 1000 nM

query: What value of IC50 on P2X7 receptor (Rattus norvegicus) does O=c1onc(C(O)c2cccc(C(F)(F)F)c2Cl)n1Cc1c(F)cccc1Cl (stereo not drawn) have?
result: > 10000 nM

query: # query: IC50 | item O=c1onc(CN2CCC(F)(F)CC2)n1Cc1c(F)cccc1Cl | system: P2X7 receptor (Rattus norvegicus)
result: < 200 nM

query: Give recorded IC50 with P2X7 receptor (Rattus norvegicus) for the following compound: O=c1onc(Cc2c(F)cccc2Cl)n1CC1CCCOC1 (stereo not drawn)
result: 1000 to 10000 nM
